Each entry below carries its recorded Affinity increase.
Target: T1, AFP158/HLA-A*02:01 complex (human)
T1 construct: biotinylated on the BSP by BirA for ELISA and panning; also called biotinylated AFP158/HLA-A*02:01 complex; Bio-AFP158
Assay: SPR; vs AS170036 VL1VH1;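 also: crude scFv captured on sensor chip, peptide–HLA complex flowed over at several concentrations, KD estimated from association and dissociation kinetic rates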

{"binder": "AS170036 VL1VH1 HS57F (scFv) scFv: QSALTQPRSVSGSPGQSVTISCAGTSSDVGSENYVSWYQQHPGKAPKLMIYQVNKRASGVPDRFSGSKSGNTASLTISGLQAEDEADYYCASYRSSDHNIVFGGGTKLTVLGGGGSGGGGSGGGGSEVQLVESGGGLVQPGGSLRLSCAASGFTFSSYAMSWVRQAPGKGLEWVSTINSGTGFPYYADSVKGRFTISRDNSKNTLYLQMNSLRAEDTAVYYCAKNFFDGSWFLGPPAMDYWGQGTLVTVSSHHHHHH", "Affinity increase": "1.4 fold"}
{"binder": "AS170036 VL1VH1 HG108I (scFv) scFv: QSALTQPRSVSGSPGQSVTISCAGTSSDVGSENYVSWYQQHPGKAPKLMIYQVNKRASGVPDRFSGSKSGNTASLTISGLQAEDEADYYCASYRSSDHNIVFGGGTKLTVLGGGGSGGGGSGGGGSEVQLVESGGGLVQPGGSLRLSCAASGFTFSSYAMSWVRQAPGKGLEWVSTINSGTGSPYYADSVKGRFTISRDNSKNTLYLQMNSLRAEDTAVYYCAKNFFDGSWFLIPPAMDYWGQGTLVTVSSHHHHHH", "Affinity increase": "0.2 fold"}
